// provenance: patent US5367078A

Listed molecules paired with reported pIC50
Molecular target: benzodiazepine receptor
Test: Benzodiazepine receptor binding assay ([^3 H]-diazepam)
Settings: [^3 H]-diazepam 1.5 nM, rat brain crude synaptosome membrane, pH 7.4, 0° C., 20 minutes
pIC50: −log10 of the molar value.

{"mol": "COc1nnc(-c2cc3c([nH]c2=O)CCN(Cc2cccc(Cl)c2F)C3)o1", "study.target": "benzodiazepine receptor", "pIC50": 8.60}
{"mol": "COc1nnc(-c2cc3c([nH]c2=O)CCN(Cc2cc(F)ccc2Br)C3)o1", "study.target": "benzodiazepine receptor", "pIC50": 8.34}
{"mol": "O=c1[nH]c2c(cc1-c1nc(C3CC3)no1)CN(Cc1cccc(F)c1)CC2", "study.target": "benzodiazepine receptor", "pIC50": 8.43}
{"mol": "COc1nnc(-c2cc3c([nH]c2=O)CCN(Cc2cc(F)ccc2Cl)C3)o1", "study.target": "benzodiazepine receptor", "pIC50": 7.71}
{"mol": "CCCc1nnc(-c2cc3c([nH]c2=O)CCN(Cc2ccccc2)C3)o1", "study.target": "benzodiazepine receptor", "pIC50": 7.86}
{"mol": "O=c1[nH]c2c(cc1-c1noc(C3CC3)n1)CN(Cc1ccccc1)CC2", "study.target": "benzodiazepine receptor", "pIC50": 8.89}
{"mol": "O=c1[nH]c2c(cc1-c1nc(C3CC3)no1)CN(Cc1ccc(Cl)cc1)CC2", "study.target": "benzodiazepine receptor", "pIC50": 7.96}
{"mol": "O=c1[nH]c2c(cc1-c1nnc(-c3cccs3)o1)CN(Cc1ccccc1)CC2", "study.target": "benzodiazepine receptor", "pIC50": 8.80}
{"mol": "Cc1cccc(CN2CCc3[nH]c(=O)c(-c4nnc(C5CC5)o4)cc3C2)c1", "study.target": "benzodiazepine receptor", "pIC50": 8.29}

* * *

Test system: pentylenetetrazole-induced clonic convulsion
Assay: Activity on pentylenetetrazole-induced clonic convulsion (anti-PTZ activity)
Type: in vivo, mouse (Std-ddY male)
Settings: Mus musculus; 10 mg/kg oral, 2 hours before pentylenetetrazole 85 mg/kg s.c., observed 30 minutes; read-out: Number of mice having antagonistic activity/number of test mice (converted)

{"mol": "O=c1[nH]c2c(cc1-c1nc(C3CC3)no1)CN(Cc1ccccc1)CC2", "responders at 10 mg/kg (%)": 60}
{"mol": "COc1nnc(-c2cc3c([nH]c2=O)CCN(Cc2ccccc2C(F)(F)F)C3)o1", "responders at 10 mg/kg (%)": 80}
{"mol": "CCc1nc(-c2cc3c([nH]c2=O)CCN(Cc2ccccc2)C3)no1", "responders at 10 mg/kg (%)": 90}
{"mol": "CC(C)c1nc(-c2cc3c([nH]c2=O)CCN(Cc2ccccc2)C3)no1", "responders at 10 mg/kg (%)": 60}
{"mol": "CCc1noc(-c2cc3c([nH]c2=O)CCN(Cc2ccccc2)C3)n1", "responders at 10 mg/kg (%)": 80}
{"mol": "Cc1nc(-c2cc3c([nH]c2=O)CCN(Cc2ccccc2)C3)no1", "responders at 10 mg/kg (%)": 100}
{"mol": "COc1nnc(-c2cc3c([nH]c2=O)CCN(Cc2cc(F)ccc2Cl)C3)o1", "responders at 10 mg/kg (%)": 100}
{"mol": "COc1nnc(-c2cc3c([nH]c2=O)CCN(Cc2cccc([N+](=O)[O-])c2)C3)o1", "responders at 10 mg/kg (%)": 80}
{"mol": "O=c1[nH]c2c(cc1-c1noc(C3CC3)n1)CN(Cc1ccccc1)CC2", "responders at 10 mg/kg (%)": 100}

* * *

Target: benzodiazepine receptor
Assay: Benzodiazepine receptor binding assay ([^3 H]-diazepam)
Conditions: [^3 H]-diazepam 1.5 nM, rat brain crude synaptosome membrane, pH 7.4, 0° C., 20 minutes
pIC50: −log10 of the molar value.
attribute.measured: pIC50

{"compound": "O=c1[nH]c2c(cc1-c1nc(C3CC3)no1)CN(Cc1cccc(Cl)c1)CC2 [Example 153]", "observed": 8.45}
{"compound": "O=c1[nH]c2c(cc1-c1nc(C3CC3)no1)CN(Cc1ccccc1)CC2 [Example 143]", "observed": 8.66}
{"compound": "COc1cccc(CN2CCc3[nH]c(=O)c(-c4nnc(C5CC5)o4)cc3C2)c1 [Example 86]", "observed": 8.10}
{"compound": "O=c1[nH]c2c(cc1-c1nnc(C3CC3)o1)CN(Cc1cccc(F)c1)CC2 [Example 88]", "observed": 8.34}
{"compound": "CCc1nc(-c2cc3c([nH]c2=O)CCN(Cc2ccccc2)C3)no1 [Example 120]", "observed": 8.36}
{"compound": "O=c1[nH]c2c(cc1-c1nnc(-c3ccco3)o1)CN(Cc1ccccc1)CC2 [Example 64]", "observed": 8.39}
{"compound": "O=c1[nH]c2c(cc1-c1nc(C3CC3)no1)CN(Cc1ccccc1Br)CC2 [Example 155]", "observed": 8.22}
{"compound": "COc1nnc(-c2cc3c([nH]c2=O)CCN(Cc2cccc(F)c2F)C3)o1 [Example 29]", "observed": 8.26}
{"compound": "O=c1[nH]c2c(cc1-c1nnc(-c3ccccc3Cl)o1)CN(Cc1ccccc1)CC2 [Example 61]", "observed": 8.20}
{"compound": "O=c1[nH]c2c(cc1-c1nnc(C3CC3)o1)CN(Cc1ccc(Cl)cc1)CC2 [Example 82]", "observed": 8.05}
{"compound": "CCCc1noc(-c2cc3c([nH]c2=O)CCN(Cc2ccccc2)C3)n1 [Example 147]", "observed": 8.60}
{"compound": "O=c1[nH]c2c(cc1-c1nc(C3CC3)no1)CN(Cc1ccccc1F)CC2 [Example 157]", "observed": 8.57}
{"compound": "O=c1[nH]c2c(cc1-c1nnc(-c3ccccc3)o1)CN(Cc1ccccc1)CC2 [Example 58]", "observed": 7.84}
{"compound": "CCc1nnc(-c2cc3c([nH]c2=O)CCN(Cc2ccccc2)C3)o1 [Example 91]", "observed": 7.64}
{"compound": "Cc1cc(-c2nnc(-c3cc4c([nH]c3=O)CCN(Cc3ccccc3)C4)o2)no1 [Example 66]", "observed": 8.00}
{"compound": "Cc1nc(-c2cc3c([nH]c2=O)CCN(Cc2ccccc2)C3)no1 [Example 122]", "observed": 8.22}
{"compound": "O=c1[nH]c2c(cc1-c1nc(C3CC3)no1)CN(Cc1ccccc1Cl)CC2 [Example 152]", "observed": 8.31}
{"compound": "CC(C)c1noc(-c2cc3c([nH]c2=O)CCN(Cc2ccccc2)C3)n1 [Example 146]", "observed": 8.04}
{"compound": "Cc1ccccc1CN1CCc2[nH]c(=O)c(-c3nc(C4CC4)no3)cc2C1 [Example 159]", "observed": 8.09}
{"compound": "O=c1[nH]c2c(cc1-c1noc(-c3ccccc3)n1)CN(Cc1ccccc1)CC2 [Example 121]", "observed": 7.20}
{"compound": "CCc1noc(-c2cc3c([nH]c2=O)CCN(Cc2ccccc2)C3)n1 [Example 142]", "observed": 8.49}
{"compound": "O=c1[nH]c2c(cc1-c1nnc(C3CC3)o1)CN(Cc1ccccc1)CC2 [Example 55]", "observed": 8.41}
{"compound": "O=c1[nH]c2c(cc1-c1noc(-c3cccs3)n1)CN(Cc1ccccc1)CC2 [Example 123]", "observed": 7.90}
{"compound": "CC(C)c1nc(-c2cc3c([nH]c2=O)CCN(Cc2ccccc2)C3)no1 [Example 124]", "observed": 8.27}
{"compound": "O=c1[nH]c2c(cc1-c1nc(-c3cccs3)no1)CN(Cc1ccccc1)CC2 [Example 145]", "observed": 8.06}
{"compound": "COc1nnc(-c2cc3c([nH]c2=O)CCN(Cc2ccc(Cl)cc2)C3)o1 [Example 7]", "observed": 7.87}
{"compound": "O=c1[nH]c2c(cc1-c1nc(-c3ccccc3)no1)CN(Cc1ccccc1)CC2 [Example 141]", "observed": 7.64}
{"compound": "O=c1[nH]c2c(cc1-c1nnc(C(F)(F)F)o1)CN(Cc1ccccc1)CC2 [Example 115]", "observed": 7.30}
{"compound": "COc1nnc(-c2cc3c([nH]c2=O)CCN(Cc2ccccc2)C3)o1 [Example 6]", "observed": 8.00}
{"compound": "Cc1cccc(CN2CCc3[nH]c(=O)c(-c4nc(C5CC5)no4)cc3C2)c1 [Example 160]", "observed": 8.43}
{"compound": "COc1nnc(-c2cc3c([nH]c2=O)CCN(Cc2ccccc2Cl)C3)o1 [Example 10]", "observed": 8.16}
{"compound": "CCCc1nc(-c2cc3c([nH]c2=O)CCN(Cc2ccccc2)C3)no1 [Example 125]", "observed": 8.06}
{"compound": "COc1nnc(-c2cc3c([nH]c2=O)CCN(Cc2ccccc2Br)C3)o1 [Example 26]", "observed": 7.85}
{"compound": "CC(C)c1nnc(-c2cc3c([nH]c2=O)CCN(Cc2ccccc2)C3)o1 [Example 56]", "observed": 7.45}
{"compound": "O=c1[nH]c2c(cc1-c1nc(C3CC3)no1)CN(Cc1cccc(Br)c1)CC2 [Example 156]", "observed": 8.18}
